The measured values listed here are drawn from patent US10738094B2.

Target: HLA-A*02:01 (Homo sapiens, UniProt P04439, D140Y/D185E/D98H/E176V/E277Q/G131W/G231S/I119V/I121R/I166T/I218V/L300P/L318F/N151K/N90K/P208A/P217A/Q86G/Q94H/R138H/R169H/T345S)
Assay: MHC binding assay (UV-ligand exchange, beta2m ELISA)
Conditions: binding to HLA-A*02:01 ranged by peptide exchange yield (UV-ligand exchange, β2m ELISA)
OBSERVATION_TYPE: Peptide exchange

Some substances with recorded Peptide exchange:
>>> result("468 (YLRSVGDGETV; listed as Homo sapiens) [compound 468]")
"“+++” (≥50 = +++)"
>>> result("503 (SLNHFTHSV; listed as Homo sapiens) [compound 503]")
"“+++” (≥50 = +++)"
>>> result("267 (ALQDFLLSV; listed as Homo sapiens) [compound 267]")
"“+++” (≥50 = +++)"
>>> result("50 (SLSELEALM; listed as Homo sapiens) [compound 50]")
"“+++” (≥50 = +++)"
>>> result("580 (LLMENAERV; listed as Homo sapiens) [compound 580]")
"“++” (≥20% = ++)"
>>> result("324 (FLYDEIEAEV; listed as Homo sapiens) [compound 324]")
"“+++” (≥50 = +++)"
>>> result("441 (ALLENPKMEL; listed as Homo sapiens) [compound 441]")
"“+++” (≥50 = +++)"
>>> result("408 (VLDDSIYLV; listed as Homo sapiens) [compound 408]")
"“++” (≥20% = ++)"

// below: Peptide exchange requested for another substance
Q) Input 111 (YVWGFYPAEV; listed as Homo sapiens) [compound 111] , output reported Peptide exchange.
A) “+++” (≥50 = +++)

====

Target: HLA-A*02:01 (Homo sapiens, UniProt P04439, D140Y/D185E/D98H/E176V/E277Q/G131W/G231S/I119V/I121R/I166T/I218V/L300P/L318F/N151K/N90K/P208A/P217A/Q86G/Q94H/R138H/R169H/T345S)
Assay: MHC binding assay (UV-ligand exchange, beta2m ELISA)
Details: binding to HLA-A*02:01 ranged by peptide exchange yield (UV-ligand exchange, β2m ELISA)
OBSERVATION_TYPE: Peptide exchange

>>> result("508 (ILAQEQLVVGV; listed as Homo sapiens) [compound 508]")
"“+++” (≥50 = +++)"
>>> result("208 (KISPVTFSV; listed as Homo sapiens) [compound 208]")
"“+++” (≥50 = +++)"
>>> result("51 (LLPDLEFYV; listed as Homo sapiens) [compound 51]")
"“++++” (≥75% = ++++)"
>>> result("204 (KIAENVEEV; listed as Homo sapiens) [compound 204]")
"“++” (≥20% = ++)"
>>> result("114 (SLVGEPILQNV; listed as Homo sapiens) [compound 114]")
"“++” (≥20% = ++)"

Q) Input 523 (YQIPRTFTL; listed as Homo sapiens) [compound 523] , output reported Peptide exchange.
A) “++” (≥20% = ++)

Q) Input 273 (NLFQSVREV; listed as Homo sapiens) [compound 273] , output reported Peptide exchange.
A) “++” (≥20% = ++)

Q) Input 444 (GLLRDEALAEV; listed as Homo sapiens) [compound 444] , output reported Peptide exchange.
A) “+++” (≥50 = +++)

Q) Input 521 (MLLTKLPTI; listed as Homo sapiens) [compound 521] , output reported Peptide exchange.
A) “+++” (≥50 = +++)

Q) Input 604 (SILDRDDIFV; listed as Homo sapiens) [compound 604] , output reported Peptide exchange.
A) “+++” (≥50 = +++)

Q) Input 47 (ILLSVPLLVV; listed as Homo sapiens) [compound 47] , output reported Peptide exchange.
A) “++” (≥20% = ++)
